B1: Subtilisin-chymotrypsin inhibitor-2A, P01053 (parent)
chain: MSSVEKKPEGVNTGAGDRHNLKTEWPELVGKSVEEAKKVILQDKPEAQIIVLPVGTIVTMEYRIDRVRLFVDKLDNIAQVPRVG

Variants of: B1
Condition Context: Hordeum vulgare; pH 6.25; 25 °C; GdnHCl; Fluorescence; MES 50 mM; reversible: yes; structure 2CI2; whole UniProt chain shown
Assay Metric: denaturant m value
For clarity, give the value followed by its unit.

Example entries and their recorded answers appear below.
L52V V58A    1.86 kcal/mol/M
A36G    1.8 kcal/mol/M
K31A    1.52 kcal/mol/M
L41A    1.93 kcal/mol/M
D72A    1.99 kcal/mol/M
P26A A36G    2.39 kcal/mol/M
F70A    2.17 kcal/mol/M
Q42A    1.77 kcal/mol/M

Data request: Tell me the measured denaturant m value of K22A , please.
Data returned: 1.77 kcal/mol/M

Data request: Tell me the measured denaturant m value of S32A E34A E35A , please.
Data returned: 2.18 kcal/mol/M
